- experimental.system: Genome polyprotein (Hepatitis C virus genotype 1a (isolate H77))
- procedure.text: Continuous Spectrophotometric Assay
- test.context: pH 6.5; 30 °C
measure.name: Ki (nM)
Numbers only; they are read as nM.

Challenge: Give its Ki value. Item: C=CCOC(=O)CNC(=O)C(=O)C(CCC)NC(=O)[C@@H]1CN(Cc2ccc(Cl)c(Cl)c2)C(=O)N1C(=O)[C@@H](NC(=O)[C@@H](NC(=O)[C@H](CCC(=O)O)NC(=O)[C@H](CCC(=O)O)NC(C)=O)C(C)C)C(C)C (some centres not stated)
Response given: 310

###

- experimental.system: Genome polyprotein (Hepatitis C virus genotype 1a (isolate H77), UniProt P27958)
- Sequence (P27958 1027-1657 limits assumed): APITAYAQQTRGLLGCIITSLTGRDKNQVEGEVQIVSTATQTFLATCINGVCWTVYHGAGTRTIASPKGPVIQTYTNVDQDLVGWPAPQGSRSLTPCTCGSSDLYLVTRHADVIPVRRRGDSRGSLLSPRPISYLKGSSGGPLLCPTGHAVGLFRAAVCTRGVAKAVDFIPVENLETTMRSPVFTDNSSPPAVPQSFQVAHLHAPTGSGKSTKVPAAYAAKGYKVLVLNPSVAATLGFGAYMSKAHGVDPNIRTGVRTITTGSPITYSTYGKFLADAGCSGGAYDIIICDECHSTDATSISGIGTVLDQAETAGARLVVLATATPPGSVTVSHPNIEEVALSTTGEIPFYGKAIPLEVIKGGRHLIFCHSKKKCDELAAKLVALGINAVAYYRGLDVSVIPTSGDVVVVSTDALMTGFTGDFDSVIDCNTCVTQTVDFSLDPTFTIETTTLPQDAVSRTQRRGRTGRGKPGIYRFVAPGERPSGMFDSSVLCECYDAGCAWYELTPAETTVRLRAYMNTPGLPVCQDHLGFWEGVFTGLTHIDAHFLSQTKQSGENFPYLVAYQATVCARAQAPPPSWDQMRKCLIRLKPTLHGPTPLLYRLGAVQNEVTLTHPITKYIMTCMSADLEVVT
- procedure.text: Continuous Spectrophotometric Assay
- test.context: pH 6.5; 30 °C
Exercise: state measured Ki for each of the molecules provided.
Report the figure in µM without appending any unit label.

Challenge: Which measured Ki value corresponds to C=CCNC(=O)C(=O)C(CCC)NC(=O)[C@@H]1CN(Cc2ccccc2)C(=O)N1C(=O)[C@@H](NC(=O)[C@@H](NC(=O)[C@H](CCC(=O)O)NC(=O)[C@H](CCC(=O)O)NC(C)=O)C(C)C)C(C)C (stereo not given in full) ?
Response given: 1

Challenge: What does the record list as Ki for C=CCNC(=O)C(=O)C(CCC)NC(=O)[C@@H]1CNC(=O)N1C(=O)[C@@H](NC(=O)[C@@H](NC(=O)[C@H](CCC(=O)OC(C)(C)C)NC(=O)[C@H](CCC(=O)OC(C)(C)C)NC(C)=O)C(C)C)C(C)C (stereo not given in full) ?
Response given: 69

Challenge: Any idea what its Ki is? The molecule is C=CCNC(=O)C(=O)C(CCC)NC(=O)[C@@H]1CN(CC(=O)OCC)C(=O)N1C(=O)[C@@H](NC(=O)[C@@H](NC(=O)[C@H](CCC(=O)OC(C)(C)C)NC(=O)[C@H](CCC(=O)OC(C)(C)C)NC(C)=O)C(C)C)C(C)C (stereo not given in full)
Response given: 30

Challenge: Need Ki, item C=CCNC(=O)C(=O)C(CCC)NC(=O)[C@@H]1CN(CC(=O)OCC)C(=O)N1C(=O)[C@@H](NC(=O)[C@@H](NC(=O)[C@H](CCC(=O)O)NC(=O)[C@H](CCC(=O)O)NC(C)=O)C(C)C)C(C)C (stereo not given in full)
Response given: 4

Challenge: Can you look up the measured Ki of C=CCOC(=O)CNC(=O)C(=O)C(CCC)NC(=O)[C@@H]1CN(Cc2ccccc2)C(=O)N1C(=O)[C@@H](NC(=O)[C@@H](NC(=O)[C@H](CCC(=O)O)NC(=O)[C@H](CCC(=O)O)NC(C)=O)C(C)C)C(C)C (stereo not given in full) for me?
Response given: 1

Ref: BindingDB's records for doi:10.1016/j.bmcl.2004.09.058
